Catalogue of molecules with associated IC50
system: SARS-CoV-2; assay: microbe, parasite or virus in culture; format: functional, organism-based, Chlorocebus sabaeus, Vero C1008; conditions: Severe acute respiratory syndrome coronavirus 2, Vero C1008, 48 h; read-out: pIC50 (converted)

Incoming: Recall the recorded IC50 for "COC(=O)N[C@H](C(=O)N1CCC[C@H]1c1ncc(-c2ccc(-c3ccc(-c4cnc([C@@H]5CCCN5C(=O)[C@@H](NC(=O)OC)C(C)C)[nH]4)cc3)cc2)[nH]1)C(C)C" with SARS-CoV-2 and state it.
Outgoing: > 100 µM

----------
system: SARS-CoV-2; experiment: microbe, parasite or virus in culture; conditions: Severe acute respiratory syndrome coronavirus 2, Vero C1008, 48 h, read-out: pIC50 (converted)
Recorded IC50 for the following molecules

Some molecules with known IC50 results, for comparison:
Incoming: Reported IC50, molecule CCN(CC)C(=O)N[C@@H]1CC2c3cccc4[nH]cc(c34)CC2N(C)C1 (some centres undefined) : ____
Outgoing: > 20 µM

Incoming: Next up: COc1ccc2c(OC)c3ccoc3nc2c1OC [SKIMMIANINE]
Outgoing: > 20 µM

Incoming: Next record, please: CCN(CC)CCNc1ccc(CO)c2sc3ccccc3c(=O)c12 [HYCANTHONE]
Outgoing: > 20 µM

Incoming: Field entry: "CC[C@H](C)n1ncn(-c2ccc(N3CCN(c4ccc(OC[C@H]5CO[C@@](Cn6cncn6)(c6ccc(F)cc6F)O5)cc4)CC3)cc2)c1=O"
Outgoing: > 20 µM

Incoming: And the next one, OC(CCCN1CCc2c(c3cc(F)ccc3n2-c2ccc(F)cc2)C1)c1ccc(F)cc1 (centres undefined) [FLUTROLINE] ?
Outgoing: 4.68 µM

Incoming: And for C[C@@H]1CN(c2c(F)c(N)c3c(=O)c(C(=O)O)cn(C4CC4)c3c2F)C[C@H](C)N1 [SPARFLOXACIN] ?
Outgoing: > 20 µM

Incoming: // query: Cc1nc(C(=O)NCC(=O)O)c(O)c2ccc(Oc3ccccc3)cc12 [ROXADUSTAT]
Outgoing: > 20 µM

Incoming: Field entry: CC(C)[C@H](N)C(=O)O[C@@H]1C[C@@H](n2ccc(N)nc2=O)O[C@H]1CO [VALTORCITABINE]
Outgoing: > 20 µM

Incoming: Further, for C1=CN2CC(c3cccs3)N=C2S1 (centres undefined) ?
Outgoing: > 20 µM

Incoming: Same read-out for C[C@H](N)[C@H](O)c1ccc(O)c(O)c1 [LEVONORDEFRIN] ?
Outgoing: > 20 µM

More entries:
Incoming: Please report the recorded IC50 for CCOc1ccc(Cc2nccc3cc(OCC)c(OCC)cc23)cc1OCC [ETHAVERINE] .
Outgoing: > 20 µM

Incoming: How about CCCC(C(=O)OCCN(CC)CC)(c1ccccc1)c1ccccc1 [PROADIFEN] ?
Outgoing: 5.13 µM

Incoming: Now try CCCCCCNC(=O)n1cc(F)c(=O)[nH]c1=O [CARMOFUR] .
Outgoing: > 20 µM

Incoming: Try this molecule too: O=C(Nc1ccc(C(=O)O)c(O)c1)c1ccccc1 [BENZOYLPAS]
Outgoing: > 20 µM

Incoming: // query: O=C(O)c1cccnc1C(=O)O [QUINOLINIC ACID]
Outgoing: > 20 µM

Incoming: How about this molecule: Nc1ccc(S(=O)(=O)Nc2cnc3ccccc3n2)cc1 [SULFAQUINOXALINE]
Outgoing: > 20 µM

Incoming: And the next one, "COC(=O)C1=C(CN2CC(F)(F)C[C@H]2C(=O)O)NC(c2nccs2)=N[C@@]1(C)c1ccc(F)cc1" ?
Outgoing: > 20 µM

Incoming: Same read-out for "CCc1c(C(=O)c2cc(C)cc(C)c2)n(CC2CC=CC2)c(=O)[nH]c1=O" ?
Outgoing: > 20 µM

Incoming: Same for CN(CC1(C)CCCO1)S(=O)(=O)c1ccc(Cl)c(S(N)(=O)=O)c1 (centres undefined) [MEFRUSIDE]
Outgoing: > 20 µM

meta.source: ChEMBL document CHEMBL4651402
